Test system: Saccharomyces cerevisiae BY4741 SeMeCo community
Test: z-score of subpopulation abundance vs DMSO median, subpopulation auxotrophic for LU; higher = larger share of this subpopulation than in DMSO controls
Conditions: 10 µM; 24 h; SM minimal medium; subpopulation (auxotrophy): LU
Where a name gives a salt, the structure may show the parent alone.
Each record's class is read off its z-score of subpopulation abundance using these ranges: bin 1 (below -0.7), bin 2 (-0.7 to below 0), bin 3 (0 or more)

Solved cases below.
molecule	answerLabel
C#CCC(Cc1cnc2nc(N)nc(N)c2n1)c1ccc(C(=O)N[C@@H](CCC(=O)O)C(=O)O)cc1 (stereo partly drawn) [Pralatrexate]	bin 1
CCCCCCCCCC(=O)N[C@@H](Cc1c[nH]c2ccccc12)C(=O)N[C@H](CC(N)=O)C(=O)N[C@@H](CC(=O)O)C(=O)N[C@@H]1C(=O)NCC(=O)N[C@@H](CCCN)C(=O)N[C@@H](CC(=O)O)C(=O)N[C@H](C)C(=O)N[C@@H](CC(=O)O)C(=O)NCC(=O)N[C@H](CO)C(=O)N[C@@H]([C@H](C)CC(=O)O)C(=O)N[C@@H](CC(=O)c2ccccc2N)C(=O)O[C@@H]1C	bin 1
COc1c(N2C[C@@H]3CCCN[C@@H]3C2)c(F)cc2c(=O)c(C(=O)O)cn(C3CC3)c12 [Moxifloxacin HCl]	bin 2
CC(C(=O)O)c1cccc(C(=O)c2ccccc2)c1 (stereo not drawn)	bin 3
CC(C)NC(=N)NC(=N)Nc1ccc(Cl)cc1	bin 2

Lab note: next molecule to report on.
In plain terms, what class is COc1ccnc(C[S+]([O-])c2nc3cc(-n4cccc4)ccc3[nH]2)c1C (stereo not drawn) [Ilaprazole sodium] ?
bin 1

====

Tested on: Saccharomyces cerevisiae BY4741 SeMeCo community
Experiment: z-score of subpopulation abundance vs DMSO median, subpopulation auxotrophic for HLM; higher = larger share of this subpopulation than in DMSO controls
Settings: 10 µM; 24 h; SM minimal medium; subpopulation (auxotrophy): HLM
Where a name gives a salt, the structure may show the parent alone.
assayReadout: z-score of subpopulation abundance

compound	z-score of subpopulation abundance
C[C@@H](c1ncncc1F)[C@](O)(Cn1cncn1)c1ccc(F)cc1F	41.5
CCCCOc1ccc(CC(=O)NO)cc1	-1.19
O=C(O)c1cc(-c2ccc(F)cc2F)ccc1O	-0.45
CC(C)[N+]1(C)[C@@H]2CC[C@H]1C[C@@H](OC(=O)C(CO)c1ccccc1)C2 (some centres not stated) [Ipratropium Bromide]	-0.71
Nc1ccc(S(N)(=O)=O)cc1 [Sulfanilamide]	-0.21

What z-score of subpopulation abundance appears in the records for this compound with Saccharomyces cerevisiae BY4741 SeMeCo community? CCCCc1oc2ccc(NS(C)(=O)=O)cc2c1C(=O)c1ccc(OCCCN(CCCC)CCCC)cc1 [Dronedarone HCl]
1.9

What z-score of subpopulation abundance appears in the records for this compound with Saccharomyces cerevisiae BY4741 SeMeCo community? CCOc1cc(N)c(Cl)cc1C(=O)NCC1CN(Cc2ccc(F)cc2)CCO1 (configuration not stated) [Mosapride]
0.45

What z-score of subpopulation abundance appears in the records for this compound with Saccharomyces cerevisiae BY4741 SeMeCo community? Cc1onc(-c2ccccc2)c1-c1ccc(S(N)(=O)=O)cc1
-0.74

What z-score of subpopulation abundance appears in the records for this compound with Saccharomyces cerevisiae BY4741 SeMeCo community? CC(C)NC(=N)NC(=N)Nc1ccc(Cl)cc1
-0.27

What z-score of subpopulation abundance appears in the records for this compound with Saccharomyces cerevisiae BY4741 SeMeCo community? CN(C)CCC=C1c2ccccc2CCc2ccccc21 [Amitriptyline HCl]
-1.26

What z-score of subpopulation abundance appears in the records for this compound with Saccharomyces cerevisiae BY4741 SeMeCo community? Oc1ccc(Cl)c2cccnc12
64

What z-score of subpopulation abundance appears in the records for this compound with Saccharomyces cerevisiae BY4741 SeMeCo community? O=C1NCC2(CCN(CCc3ccccc3)CC2)O1 [Fenspiride HCl]
0.35

====

Tested on: Saccharomyces cerevisiae BY4741 SeMeCo community
Assay: z-score of subpopulation abundance vs DMSO median, subpopulation auxotrophic for HLU; higher = larger share of this subpopulation than in DMSO controls
Settings: 10 µM; 24 h; SM minimal medium; subpopulation (auxotrophy): HLU
Where a name gives a salt, the structure may show the parent alone.
# z-score of subpopulation abundance per record follows
When you answer, write just the number.

                                   compound                        assayreadout  reportedresult
0  COc1ccc([C@@H]2Sc3ccccc3N(CCN(C)C)C(=O)[C@@H]2OC(C)=O)cc1 [Diltiazem HCl]  z-score of subpopulation abundance            0.03
1  CCCC(=O)OCOC(=O)C1=C(C)NC(C)=C(C(=O)OC)C1c1cccc(Cl)c1Cl (stereo not given) [Clevidipine Butyrate]  z-score of subpopulation abundance           -3.55
2  NC(=NCCCCCCN=C(N)N=C(N)Nc1ccc(Cl)cc1)N=C(N)Nc1ccc(Cl)cc1 [Chlorhexidine?2HCl]  z-score of subpopulation abundance            3.88
3  CCCNC(C)C(=O)Nc1ccccc1C (stereo not given) [Prilocaine hydrochloride]  z-score of subpopulation abundance           -0.01

Would you kindly share the measured z-score of subpopulation abundance for CCOC(=O)c1c(CSc2ccccc2)n(C)c2cc(Br)c(O)c(CN(C)C)c12 [Arbidol HCl] ?
0.12

====

Test system: Saccharomyces cerevisiae BY4741 SeMeCo community
Assay: z-score of prototroph abundance vs DMSO median; higher = larger share of this subpopulation than in DMSO controls
Settings: 10 µM; 24 h; SM minimal medium; subpopulation (auxotrophy): Prototroph
Structures can show the parent of a compound that is named as a salt.
# z-score of prototroph abundance per record follows
When you answer, write just the number.

>>> df
                                   compound  reportedresult
0     C[n+]1ccccc1C=NO [Pralidoxime Iodide]           -0.53
1  O=C1[C@H]2CCCC[C@H]2C(=O)N1CCCCN1CCN(c2nsc3ccccc23)CC1 [Perospirone hydrochloride]            0.14

Kindly consider the entry below.
What z-score of prototroph abundance appears in the records for this compound with Saccharomyces cerevisiae BY4741 SeMeCo community? O=C1CN2Cc3c(ccc(Cl)c3Cl)N=C2N1 [Anagrelide HCl]
0.08

====

# mean cell size per record follows
Test system: Saccharomyces cerevisiae BY4741 SeMeCo community
Assay: mean cell size (pixel area) (pixels); higher = larger cells
Conditions: 10 µM; 24 h; SM minimal medium
Where a name gives a salt, the structure may show the parent alone.
When you answer, write just the number.

                                   compound  reportedresult
0  CCc1c(C)[nH]c2c1C(=O)C(CN1CCOCC1)CC2 (stereo not drawn) [Molindone hydrochloride]            12.2

Would you kindly share the measured mean cell size for CN1[C@@H]2CC[C@H]1C[C@@H](OC(=O)c1c[nH]c3ccccc13)C2 [Tropisetron HCl] ?
12.6

Would you kindly share the measured mean cell size for Nc1nc2c(ncn2COC(CO)CO)c(=O)[nH]1 ?
12.4

Would you kindly share the measured mean cell size for C#CCN[C@@H]1CCc2ccccc21 [Rasagiline Mesylate] ?
12.5

Would you kindly share the measured mean cell size for CCCNC(C)C(=O)Nc1ccccc1C (stereo not drawn) [Prilocaine] ?
12.5

Would you kindly share the measured mean cell size for CCN(CC)CCOc1ccc(C(=C(Cl)c2ccccc2)c2ccccc2)cc1 [Clomifene citrate] ?
12.1

Would you kindly share the measured mean cell size for Cn1nnnc1SCC1=C(C(=O)O)N2C(=O)[C@@H](NC(=O)[C@H](OC=O)c3ccccc3)[C@H]2SC1 [Cefamandole nafate] ?
12.6

Would you kindly share the measured mean cell size for C[C@@H](O)[C@H]1C(=O)N2C(C(=O)O)=C(S[C@@H]3CN[C@H](C(=O)N(C)C)C3)[C@H](C)[C@H]12 ?
12.4

====

System: Saccharomyces cerevisiae BY4741 SeMeCo community
Experiment: z-score of subpopulation abundance vs DMSO median, subpopulation auxotrophic for L; higher = larger share of this subpopulation than in DMSO controls
Conditions: 10 µM; 24 h; SM minimal medium; subpopulation (auxotrophy): L
# z-score of subpopulation abundance per record follows
When you answer, write just the number.

Recorded results for 2 compounds are shown here.
compound	z-score of subpopulation abundance
Fc1ccc(C(c2ccc(F)cc2)N2CCN(C/C=C/c3ccccc3)CC2)cc1 [Flunarizine 2HCl]	2.04
C[C@@H](O)[C@H]1C(=O)N2C(C(=O)O)=C(S[C@@H]3CN[C@H](C(=O)Nc4cccc(C(=O)O)c4)C3)[C@H](C)[C@H]12 [Ertapenem sodium]	-0.78

Would you kindly share the measured z-score of subpopulation abundance for COc1cc([C@@H]2c3cc4c(cc3[C@@H](O[C@@H]3O[C@@H]5CO[C@@H](c6cccs6)O[C@H]5[C@H](O)[C@H]3O)[C@H]3COC(=O)[C@H]23)OCO4)cc(OC)c1O [Teniposide] ?
1.6

Origin of measurements: the supplement of paper PMC8975748
